conditions: in n-butanol, 303.15 K
READOUT KIND: solubility (mole fraction)
Numbers only.

Briefly, solubility (mole fraction) measured for "NC(=O)C[C@H](N)C(=O)O.O" : 4.2e-05

---

settings: in n-propyl acetate, 303.15 K
READOUT KIND: solubility (mole fraction)
Numbers only.

Reported solubility (mole fraction) for "NC(=O)C[C@H](N)C(=O)O.O" was 6.11e-05

---

settings: in n-propyl acetate, 288.15 K
READOUT KIND: solubility (mole fraction)
One number for each entry.

Lookup result for "NC(=O)C[C@H](N)C(=O)O.O" ; measured solubility (mole fraction): 2.81e-05

---

settings: in ethanol, 308.15 K
READOUT KIND: solubility (mole fraction)
One number for each entry.

GET /value?item= "NC(=O)C[C@H](N)C(=O)O.O" &field=solubility (mole fraction) returns 6.73e-05

---

settings: in acetonitrile, 323.15 K
READOUT KIND: solubility (mole fraction)
One number for each entry.

Entry "NC(=O)C[C@H](N)C(=O)O.O" — recorded solubility (mole fraction) = 6.64e-05

---

details: in n-butanol, 323.15 K
READOUT KIND: solubility (mole fraction)
Answers are plain numbers.

solubility (mole fraction) measured on "NC(=O)C[C@H](N)C(=O)O.O" = 0.000105

---

settings: in n-propanol, 318.15 K
READOUT KIND: solubility (mole fraction)
Numbers only.

Entry "NC(=O)C[C@H](N)C(=O)O.O" , solubility (mole fraction) reported as 9.28e-05

---

details: in n-butyl acetate, 308.15 K
READOUT KIND: solubility (mole fraction)
Answers are plain numbers.

Item: "NC(=O)C[C@H](N)C(=O)O.O" | solubility (mole fraction): 7.24e-05

---

conditions: in water, 313.15 K
READOUT KIND: solubility (mole fraction)
Answers are plain numbers.

Consider "NC(=O)C[C@H](N)C(=O)O.O" . Its measured solubility (mole fraction) is 0.00627

---

settings: in acetonitrile, 318.15 K
READOUT KIND: solubility (mole fraction)
One number for each entry.

Looking up "NC(=O)C[C@H](N)C(=O)O.O" , I found its solubility (mole fraction) recorded as 5.24e-05

---

conditions: in isopropanol, 278.15 K
READOUT KIND: solubility (mole fraction)
Give bare numbers.

The reported solubility (mole fraction) of the molecule "NC(=O)C[C@H](N)C(=O)O.O" was 9.67e-06

---

settings: in n-propanol, 303.15 K
READOUT KIND: solubility (mole fraction)
Answers are plain numbers.

solubility (mole fraction) measured on "NC(=O)C[C@H](N)C(=O)O.O" = 4.4e-05

---

settings: in isopropanol, 293.15 K
READOUT KIND: solubility (mole fraction)
Numbers only.

Value of solubility (mole fraction) reported for the compound "NC(=O)C[C@H](N)C(=O)O.O" is 2.22e-05

---

conditions: in methyl acetate, 288.15 K
READOUT KIND: solubility (mole fraction)
Answers are plain numbers.

# compound "NC(=O)C[C@H](N)C(=O)O.O" ; its solubility (mole fraction) = 2.91e-05

---

conditions: in isobutanol, 298.15 K
READOUT KIND: solubility (mole fraction)
Numbers only.

For reference, reported solubility (mole fraction) for "NC(=O)C[C@H](N)C(=O)O.O" stands at 3.38e-05

---

conditions: in methyl acetate, 303.15 K
READOUT KIND: solubility (mole fraction)
Numbers only.

Recorded solubility (mole fraction) (compound "NC(=O)C[C@H](N)C(=O)O.O" ): 6.28e-05

Where these numbers come from: BigSolDB 2.1
